Biological target: HLA-B*15:01
Test: HLA binding; serotype 3
Conditions: chains peptide; modification not given
measure: IC50 (nM)

• RQWFFDLPL […, serotype 3] = 80

// provenance: patent US20190008947A1
